measured.endpoint: melting point

Provide measured melting point value, entry: CS(=O)(=O)Cc1ccc(Oc2cc(OC3CCOCC3)c3[nH]c(C4=NCC(CC(N)=O)S4)cc3c2)cn1 (stereo not drawn)
164 to 167 °C

Provide measured melting point value, entry: CS(=O)(=O)c1ccc(Oc2cc(OC3CCOCC3)c3[nH]c(C4=NCC(CC(N)=O)S4)cc3c2)cn1 (stereo not drawn)
136 to 138 °C

Provide measured melting point value, entry: CNC(=O)CC1CN=C(c2cc3cc(Oc4ccc(CS(C)(=O)=O)nc4)cc(OC4CCOCC4)c3[nH]2)S1 (stereo not drawn)
157 to 158 °C

Provide measured melting point value, entry: CS(=O)(=O)c1ccc(Oc2ccc3[nH]c(C4=NCC(CC(=O)O)S4)cc3c2)cn1 (stereo not drawn)
205 to 208 °C

Provide measured melting point value, entry: COCc1ccc(Oc2cc(OC3CCOCC3)c3[nH]c(C4=NCC(CC(C)(C)O)S4)cc3c2)cn1 (stereo not drawn)
108 to 110 °C

Provide measured melting point value, entry: Cc1cc(Oc2ccc(S(C)(=O)=O)nc2)cc2cc(C3=NCC(CC(=O)O)S3)[nH]c12 (stereo not drawn)
248 to 249 °C

Provide measured melting point value, entry: CNC(=O)CC1CN=C(c2cc3cc(Oc4ccc(S(C)(=O)=O)nc4)cc(C)c3[nH]2)S1 (stereo not drawn)
183 to 184 °C

Provide measured melting point value, entry: CS(=O)(=O)c1ccc(Oc2cc(OC3CCOCC3)c3[nH]c(C4=NCC(CC(=O)NCCO)S4)cc3c2)cn1 (stereo not drawn)
157 to 158 °C

Provide measured melting point value, entry: CCc1cc(Oc2ccc(S(C)(=O)=O)nc2)cc2cc(C3=NCC(CC(N)=O)S3)[nH]c12 (stereo not drawn)
190 to 191 °C

Provide measured melting point value, entry: Cc1cc(Oc2ccc(S(C)(=O)=O)nc2)cc2cc(C3=NCC(CC(=O)NCC(C)(C)O)S3)[nH]c12 (stereo not drawn)
184 to 186 °C

Provide measured melting point value, entry: CC(C)(O)CC1CN=C(c2cc3cc(Oc4ccc(S(C)(=O)=O)cn4)cc(OC4CCOCC4)c3[nH]2)S1 (stereo not drawn)
129 to 130 °C

Provide measured melting point value, entry: Cc1cc(Oc2ccc(S(C)(=O)=O)nc2)cc2cc(C3=NCC(CC(=O)NC[C@H](C)O)S3)[nH]c12 (stereo partly drawn)
170 to 171 °C

Provide measured melting point value, entry: CS(=O)(=O)c1ccc(Oc2ccc3[nH]c(C4=NCC(CC(=O)N5CCOCC5)S4)cc3c2)cn1 (stereo not drawn) [Example 58]
190 to 191 °C

Provide measured melting point value, entry: Cc1cc(Oc2ccc(S(C)(=O)=O)nc2)cc2cc(C3=NCC(CC(N)=O)S3)[nH]c12 (stereo not drawn)
202 to 203 °C

Provide measured melting point value, entry: Cc1cc(Oc2ccc(S(C)(=O)=O)nc2)cc2cc(C3=NCC(CC(=O)N4CCOCC4)S3)[nH]c12 (stereo not drawn)
152 to 154 °C

* * *

measured.endpoint: melting point

Provide measured melting point value, entry: CS(=O)(=O)c1ccc(Oc2ccc3[nH]c(C4=NCC(CC(=O)NCC(F)(F)F)S4)cc3c2)cn1 (centres unmarked)
234 to 235 °C

Provide measured melting point value, entry: CCc1cc(Oc2ccc(S(C)(=O)=O)nc2)cc2cc(C3=NCC(CC(=O)NC)S3)[nH]c12 (centres unmarked)
189 to 190 °C

Provide measured melting point value, entry: CCNC(=O)CC1CN=C(c2cc3cc(Oc4ccc(S(C)(=O)=O)nc4)cc(CC)c3[nH]2)S1 (centres unmarked)
227 to 229 °C

Provide measured melting point value, entry: CS(=O)(=O)c1ccc(Oc2cc(OC3CCOCC3)c3[nH]c(C4=NCC(CCO)S4)cc3c2)nc1 (centres unmarked)
165 to 166 °C

Provide measured melting point value, entry: CNC(=O)CC1CN=C(c2cc3cc(Oc4ccc(S(C)(=O)=O)nc4)ccc3[nH]2)S1 (single isomer, unassigned) [Example 78]
178 to 180 °C

Provide measured melting point value, entry: CS(=O)(=O)c1ccc(Oc2ccc3[nH]c(C4=NCC(CC(=O)N5CCOCC5)S4)cc3c2)cn1 (single isomer, unassigned) [Example 69]
167 to 168 °C

Provide measured melting point value, entry: CCc1cc(Oc2ccc(S(C)(=O)=O)nc2)cc2cc(C3=NCC(CC(=O)N4CC[S+]([O-])CC4)S3)[nH]c12 (centres unmarked)
194 to 196 °C

Provide measured melting point value, entry: CS(=O)(=O)c1ccc(Oc2cc(OC3CCOCC3)c3[nH]c(C4=NCC(CC(=O)N5CC(O)C5)S4)cc3c2)nc1 (centres unmarked)
180 to 181 °C

Provide measured melting point value, entry: CS(=O)(=O)c1ccc(Oc2ccc3[nH]c(C4=NCC(CC(=O)N5CCOCC5)S4)cc3c2)cn1 (centres unmarked) [Example 68]
168 to 169 °C

Provide measured melting point value, entry: CS(=O)(=O)c1ccc(Oc2cc(OC3CCOCC3)c3[nH]c(C4=NCC(CCO)S4)cc3c2)cc1 (centres unmarked)
116 to 117 °C

Provide measured melting point value, entry: CC(C)(O)CC1CN=C(c2cc3cc(Oc4ccc(S(C)(=O)=O)cc4)cc(OC4CCOCC4)c3[nH]2)S1 (centres unmarked)
163 to 164 °C

Provide measured melting point value, entry: CNC(=O)CC1CN=C(c2cc3cc(Oc4ccc(S(C)(=O)=O)nc4)cc(OC4CCOCC4)c3[nH]2)S1 (centres unmarked)
143 to 144 °C

Provide measured melting point value, entry: CCNC(=O)CC1CN=C(c2cc3cc(Oc4ccc(S(C)(=O)=O)nc4)cc(OC4CCOCC4)c3[nH]2)S1 (centres unmarked)
197 to 198 °C

Provide measured melting point value, entry: CNC(=O)CC1CN=C(c2cc3cc(Oc4ccc(S(C)(=O)=O)cn4)cc(OC4CCOCC4)c3[nH]2)S1 (centres unmarked)
170 to 172 °C
